- SYSTEM NAME: CYP3A4 (Homo sapiens)
- Sequence (P08684 whole entry): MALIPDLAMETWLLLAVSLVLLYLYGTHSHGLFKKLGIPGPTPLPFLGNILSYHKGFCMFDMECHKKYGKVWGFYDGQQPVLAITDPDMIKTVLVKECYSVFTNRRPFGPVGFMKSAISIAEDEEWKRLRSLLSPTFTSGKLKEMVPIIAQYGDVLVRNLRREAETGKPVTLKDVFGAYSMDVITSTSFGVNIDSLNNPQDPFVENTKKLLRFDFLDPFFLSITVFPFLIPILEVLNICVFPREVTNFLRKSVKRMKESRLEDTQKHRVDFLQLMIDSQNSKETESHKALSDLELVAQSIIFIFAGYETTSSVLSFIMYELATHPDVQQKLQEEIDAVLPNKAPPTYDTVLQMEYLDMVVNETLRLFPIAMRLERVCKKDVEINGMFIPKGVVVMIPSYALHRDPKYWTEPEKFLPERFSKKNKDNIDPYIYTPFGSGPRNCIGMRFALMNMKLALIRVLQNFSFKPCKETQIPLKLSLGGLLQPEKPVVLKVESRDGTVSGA
- ASSAY EXPLANATION: Inhibition constant Ki in human hepatic microsome with midazolam as CYP3A4 probe substrate
- TEST CONTEXT: read-out: Ki value; human hepatic microsome, midazolam 0.33 μmol/L as CYP3A4 substrate; IC50 directly used as Ki
- From the text: For predicting the DDI risk, midazolam that is a CYP3A4 substrate was used as a probe compound to determine an inhibition constant Ki value of each compound in human hepatic microsome. […] The thus-obtained sample was used as a LCMS measurement solution. […] Each set was used for LCMS quantitative analysis. Therefore, the determined IC50 was directly used as Ki value.
READOUT LABEL: Ki

The value of Ki measured for the molecule CCCSc1nc(N[C@@H]2C[C@H]2c2ccc(F)c(F)c2)c2nnn([C@@H]3C[C@H](OCCO)[C@@H](O)[C@H]3O)c2n1 turned out to be ≥ 87 µM

Hey, just so you know, these numbers are from patent US20240125807A1.
